SUBJECT_OF_TEST: human recombinant MC1R (CHO-K1 stable cell line, GenScript) (human, UniProt Q01726 1-317)
Sequence (Q01726 whole entry): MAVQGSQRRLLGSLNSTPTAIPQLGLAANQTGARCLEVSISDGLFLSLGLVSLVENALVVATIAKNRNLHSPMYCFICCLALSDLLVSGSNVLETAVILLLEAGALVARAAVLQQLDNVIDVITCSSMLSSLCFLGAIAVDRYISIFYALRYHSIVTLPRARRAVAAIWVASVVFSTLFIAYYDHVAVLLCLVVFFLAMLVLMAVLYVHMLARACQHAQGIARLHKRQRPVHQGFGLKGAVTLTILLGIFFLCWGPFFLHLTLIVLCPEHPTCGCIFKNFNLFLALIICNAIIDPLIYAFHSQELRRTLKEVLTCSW
TEST_NAME: cell-based or functional assay
Starred links: 1 amine or outer side, 2 acyl side, 3 side chain; linkers in the order of their positions; H or OH if unused. Positions of bridges follow the written chain, without caps; N, C: chain ends. Non-standard residues stand in square brackets, D forms with d. *: point of attachment. Hgln = homoglutamine, NC(=O)CCC[C@H](N[*:1])C(=O)[*:2]; Benzoyl(3,5-(OH)2) = O=C(c1cc(O)cc(O)c1)*; Lys(N3) = [N-]=[N+]=NCCCC[C@H](N)C(=O)O; dPhe(4-F) = N[C@H](Cc1ccc(F)cc1)C(=O)O; Nle = CCCC[C@H](N)C(=O)O; Pra = C#CC[C@H](N)C(=O)O
Strictly below 0.002 nM in EC50(nM)-MC1R: YES. Otherwise: NO.

Answered cases to consult:
BINDER	CLASS_LABEL
Ac-[Nle][Lys(N3)]H[dPhe(4-F)]RW[Pra]-NH2 (triazole 2-7) [KR-049]	NO
{Benzoyl(3,5-(OH)2)}-[Nle][Lys(N3)]H[dPhe(4-F)]RW[Pra][Hgln]-NH2 (triazole 2-7; not fully specified; printed as HyBA-Nle-[Lys(N3)-His-Dphe(4-F)-Arg-Trp-Pra]-Hgln-NH2) [KR-071]	NO

(Q) Is 0.002 nM strictly greater than the binder's reported EC50(nM)-MC1R? binder: Ac-[Nle][Lys(N3)]H[dF]RW[Pra]-NH2 (bridge 2-7; not fully specified (bridges); printed as Ac-Nle-[Lys(N3)-His-DPhe-Arg-Trp-Pra]-NH2) [KR-009]
(A) NO

(Q) Is 0.002 nM strictly greater than the binder's reported EC50(nM)-MC1R? binder: {Benzoyl(3,5-(OH)2)}-[Nle][Lys(N3)]H[dPhe(4-F)]RW[Pra]-NH2 (triazole 2-7; not fully specified; printed as HyBA-Nle-[Lys(N3)-His-Dphe(4-F)-Arg-Trp-Pra]-NH2) [KR-072]
(A) YES

(Q) Is 0.002 nM strictly greater than the binder's reported EC50(nM)-MC1R? binder: {Benzoyl(3,5-(OH)2)}-[Nle][Lys(N3)]H[dF]RW[Pra]-NH2 (triazole 2-7; not fully specified; printed as HyBA-Nle-[Lys(N3)-His-DPhe-Arg-Trp-Pra]-NH2) [KR-073]
(A) NO
